# protocol-description: Inhibition of sheep kidney esterase activity of carbonic anhydrase using 4-nitrophenylacetate as substrate after 3 mins by spectrophotometric analysis
# Design: species or system Ovis aries
measured-endpoint: Ki (µM)
Answer with a number only, understood to be in µM.

Give Ki for the following molecule: `NS(=O)(=O)c1ccccc1Br`
5.87

Give the reported value of Ki for this record: `NS(=O)(=O)c1ccc2ccccc2c1`
2.59

Return the recorded Ki value; entry: NS(=O)(=O)c1ccccc1 [BENZENESULFONAMIDE]
8.66

Tell me its Ki given Nc1ccc(S(N)(=O)=O)cc1 [SULFANILAMIDE] as the entry.
69.3

State its Ki: Cc1ccc(S(N)(=O)=O)cc1 [P-TOLUENESULFONAMIDE]
1.35
